meta.source: patent US20110172153A1

- targetDesc: T1, human parathyroid hormone receptor (PTHR) (human, UniProt Q03431 27-593)
- T1 construct: Assayed in membranes of HKRK-B7 cells or of transiently transfected COS-7 cells, or on intact HKRK-B7/HKRK-B64/COS-7 cells; RG = co-transfected with negative-dominant Galpha-s; R0 = receptor alone plus GTPgammaS; also called hPTHR; human PTH receptor
- T1 sequence: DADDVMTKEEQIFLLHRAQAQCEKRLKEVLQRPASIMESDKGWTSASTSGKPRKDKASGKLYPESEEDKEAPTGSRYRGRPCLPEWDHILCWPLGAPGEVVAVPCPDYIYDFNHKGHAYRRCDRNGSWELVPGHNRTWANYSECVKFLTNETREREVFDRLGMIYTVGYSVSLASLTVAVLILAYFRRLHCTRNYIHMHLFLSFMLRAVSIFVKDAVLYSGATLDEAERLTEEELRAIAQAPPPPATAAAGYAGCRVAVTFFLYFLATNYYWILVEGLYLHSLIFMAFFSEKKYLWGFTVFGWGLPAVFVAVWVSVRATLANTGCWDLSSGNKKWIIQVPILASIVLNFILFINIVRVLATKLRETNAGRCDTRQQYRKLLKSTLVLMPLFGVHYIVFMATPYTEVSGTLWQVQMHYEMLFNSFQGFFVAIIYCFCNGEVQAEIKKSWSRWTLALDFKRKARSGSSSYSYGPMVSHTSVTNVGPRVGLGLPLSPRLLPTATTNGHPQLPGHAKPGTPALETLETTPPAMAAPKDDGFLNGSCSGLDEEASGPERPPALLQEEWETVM
- protocolText: screen, binding to human PIR RG relative to parent PTHrP(1-28)NH; footnote not given
Ends that are not written are not given here.
observationType: human PIR RG (% parent)
Give bare numbers, in % parent.

Field: example entries. Status: answers known.
binder="AVSEHQLLHDKGKSIQDARRRAFLHALI-NH2 [A18,22,26-PTHrP(1-28)NH]" valuemeasured=167
binder="AVSEHQLLHDKGKSIQDERRRWFLHKLI-NH2 [E18,W22,K26-PTHrP(1-28)NH]" valuemeasured=149

// next item, human PIR RG (% parent) requested
Input AVSEHQLLHDKGKSIQDARRRLFLHALI-NH2 [A18,26,L22-PTHrP(1-28)NH] , output reported human PIR RG (% parent). 163
